measurement-protocol: Reverse-phase thin-layer chromatographic lipophilicity (RF, RM0)
Type: physicochemical
details: RP-18 silica; II = 85%MeOH/10%H2O/5%HCl
As shown below, each of these compounds has a reported RF, Methanol/Water/Hydrochloric acid (conc.), mobile phase II value.
observed-property: RF, Methanol/Water/Hydrochloric acid (conc.), mobile phase II

compound | experimental-value
CC(CCNCCC12CC3CC(CC(C3)C1)C2)Nc1ccnc2ccccc12 (stereo not drawn) | 0.64
Clc1ccc2c(Nc3cccc(NCC45CC6CC(CC(C6)C4)C5)c3)ccnc2c1 | 0.68
Clc1ccc2c(NCCCCCCNCC34CC5CC(CC(C5)C3)C4)ccnc2c1 | 0.66
Clc1ccc2c(NCCCCN(CCC34CC5CC(CC(C5)C3)C4)CCC34CC5CC(CC(C5)C3)C4)ccnc2c1 | 0.31
Clc1ccc2c(NCCNCCC34CC5CC(CC(C5)C3)C4)ccnc2c1 | 0.63
Clc1ccc2c(NCCCNCC34CC5CC(CC(C5)C3)C4)ccnc2c1 | 0.67
Clc1ccc2c(Nc3cccc4c(NCCC56CC7CC(CC(C7)C5)C6)cccc34)ccnc2c1 | 0.61
Clc1ccc2c(NCCN(CCC34CC5CC(CC(C5)C3)C4)CCC34CC5CC(CC(C5)C3)C4)ccnc2c1 | 0.31
CC(CCNCC12CC3CC(CC(C3)C1)C2)Nc1ccnc2cc(Cl)ccc12 (stereo not drawn) | 0.66
Clc1ccc2c(NCCCCCCCCNCC34CC5CC(CC(C5)C3)C4)ccnc2c1 | 0.62
FC(F)(F)c1ccc2c(NCCNCC34CC5CC(CC(C5)C3)C4)ccnc2c1 | 0.67
CC(CCNCC12CC3CC(CC(C3)C1)C2)Nc1ccnc2cc(C(F)(F)F)ccc12 (stereo not drawn) | 0.66
FC(F)(F)c1ccc2c(NCCCNCC34CC5CC(CC(C5)C3)C4)ccnc2c1 | 0.67
Clc1ccc2c(N3CCN(CC45CC6CC(CC(C6)C4)C5)CC3)ccnc2c1 | 0.7
Clc1ccc2c(NCCNCC34CC5CC(CC(C5)C3)C4)ccnc2c1 | 0.68

* * *

As shown below, each of these compounds has a reported b value.
measurement-protocol: Reverse-phase thin-layer chromatographic lipophilicity (RF, RM0)
Assay type: physicochemical
details: Methanol/Water/Hydrochloric acid (conc.); slope of RM = RM0 + bC

compound | b
Clc1ccc2c(NCCCNCC34CC5CC(CC(C5)C3)C4)ccnc2c1 | 3.123
Clc1ccc2c(NCCNCCC34CC5CC(CC(C5)C3)C4)ccnc2c1 | 3.446
Clc1ccc2c(Nc3cccc(NCC45CC6CC(CC(C6)C4)C5)c3)ccnc2c1 | 3.468
CC(CCNCC12CC3CC(CC(C3)C1)C2)Nc1ccnc2cc(C(F)(F)F)ccc12 (centres unmarked) | 3.42
Clc1ccc2c(NCCCN3CCN(CCCNCCC45CC6CC(CC(C6)C4)C5)CC3)ccnc2c1 | 2.892
Clc1ccc2c(N3CCN(CCC45CC6CC(CC(C6)C4)C5)CC3)ccnc2c1 | 2.906
FC(F)(F)c1ccc2c(NCCNCC34CC5CC(CC(C5)C3)C4)ccnc2c1 | 3.208
Clc1ccc2c(NCCCCN(CCC34CC5CC(CC(C5)C3)C4)CCC34CC5CC(CC(C5)C3)C4)ccnc2c1 | 5.91
FC(F)(F)c1ccc2c(NCCCNCC34CC5CC(CC(C5)C3)C4)ccnc2c1 | 3.427
Clc1ccc2c(NCCCCNCC34CC5CC(CC(C5)C3)C4)ccnc2c1 | 3.092
CC(CCNCC12CC3CC(CC(C3)C1)C2)Nc1ccnc2ccccc12 (centres unmarked) | 3.062
Clc1ccc2c(NCCN(CCC34CC5CC(CC(C5)C3)C4)CCC34CC5CC(CC(C5)C3)C4)ccnc2c1 | 5.91
Clc1ccc2c(NCCCCCCNCC34CC5CC(CC(C5)C3)C4)ccnc2c1 | 3.742
CC(CCNCC12CC3CC(CC(C3)C1)C2)Nc1ccnc2cc(Cl)ccc12 (centres unmarked) | 3.174
Clc1ccc2c(NCCCN3CCN(CCCNCC45CC6CC(CC(C6)C4)C5)CC3)ccnc2c1 | 2.199
Clc1ccc2c(Nc3cccc4c(NCCC56CC7CC(CC(C7)C5)C6)cccc34)ccnc2c1 | 4.54
Clc1ccc2c(Nc3ccc(NCC45CC6CC(CC(C6)C4)C5)cc3)ccnc2c1 | 3.504

* * *

measurement-protocol: Reverse-phase thin-layer chromatographic lipophilicity (RF, RM0)
Type: physicochemical
details: Methanol/Water/Hydrochloric acid (conc.); intercept of RM = RM0 + bC
observed-property: RM0

compound | experimental-value
Clc1ccc2c(Nc3cccc(NCC45CC6CC(CC(C6)C4)C5)c3)ccnc2c1 | 2.664
CC(CCNCC12CC3CC(CC(C3)C1)C2)Nc1ccnc2cc(Cl)ccc12 (stereo not shown) | 2.4121
Clc1ccc2c(NCCN(CCC34CC5CC(CC(C5)C3)C4)CCC34CC5CC(CC(C5)C3)C4)ccnc2c1 | 5.446
CC(CCNCC12CC3CC(CC(C3)C1)C2)Nc1ccnc2ccccc12 (stereo not shown) | 2.31

* * *

target-system: recombinant human AChE (Homo sapiens, UniProt P22303)
Construct: gift of Dr Florian Nachon (Armed Forces Biomedical Research Institute, Brétigny-sur-Orge, France)
Sequence (P22303 32-614): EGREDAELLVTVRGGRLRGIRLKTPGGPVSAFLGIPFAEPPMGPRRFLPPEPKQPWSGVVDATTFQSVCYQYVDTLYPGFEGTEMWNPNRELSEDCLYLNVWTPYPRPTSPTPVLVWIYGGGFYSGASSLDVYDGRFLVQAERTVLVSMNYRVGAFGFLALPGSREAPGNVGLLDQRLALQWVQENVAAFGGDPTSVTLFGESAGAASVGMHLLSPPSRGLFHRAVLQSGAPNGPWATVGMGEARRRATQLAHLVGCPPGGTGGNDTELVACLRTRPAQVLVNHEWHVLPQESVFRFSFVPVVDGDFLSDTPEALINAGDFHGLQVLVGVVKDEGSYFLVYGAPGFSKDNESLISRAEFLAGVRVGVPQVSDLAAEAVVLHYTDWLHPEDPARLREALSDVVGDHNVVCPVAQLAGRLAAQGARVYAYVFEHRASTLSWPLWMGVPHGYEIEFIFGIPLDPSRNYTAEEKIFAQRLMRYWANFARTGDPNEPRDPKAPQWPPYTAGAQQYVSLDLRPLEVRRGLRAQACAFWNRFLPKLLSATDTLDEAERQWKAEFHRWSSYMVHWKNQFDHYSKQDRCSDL
measurement-protocol: biochemical
Format: biochemical
details: log (Ki/µM AChE); read-out: Y Measured 1 log(ki)Ache (converted)
As shown below, each of these compounds has a reported Ki value.

smiles-str | Ki / µM
Clc1ccc2c(Nc3cccc4c(NCCC56CC7CC(CC(C7)C5)C6)cccc34)ccnc2c1 | 3.8
FC(F)(F)c1ccc2c(NCCNCC34CC5CC(CC(C5)C3)C4)ccnc2c1 | 1.2
Clc1ccc2c(N3CCN(CCC45CC6CC(CC(C6)C4)C5)CC3)ccnc2c1 | 2.1
Clc1ccc2c(NCCN(CCC34CC5CC(CC(C5)C3)C4)CCC34CC5CC(CC(C5)C3)C4)ccnc2c1 | 5.2
Clc1ccc2c(NCCCN3CCN(CCCNCCC45CC6CC(CC(C6)C4)C5)CC3)ccnc2c1 | 0.44
FC(F)(F)c1ccc2c(NCCCNCC34CC5CC(CC(C5)C3)C4)ccnc2c1 | 1.1
Clc1ccc2c(NCCCCCCCCNCC34CC5CC(CC(C5)C3)C4)ccnc2c1 | 0.0759
Clc1ccc2c(NCCCCNCC34CC5CC(CC(C5)C3)C4)ccnc2c1 | 1
Clc1ccc2c(NCCNCC34CC5CC(CC(C5)C3)C4)ccnc2c1 | 1.2

* * *

measurement-protocol: Reverse-phase thin-layer chromatographic lipophilicity (RF, RM0)
Format: physicochemical
details: RP-18 silica; II = 80%Dioxane/15%H2O/5%HCl
As shown below, each of these compounds has a reported RF, Dioxane/Water/Hydrochloric acid (conc.), mobile phase II value.
observed-property: RF, Dioxane/Water/Hydrochloric acid (conc.), mobile phase II

compound | experimental-value
Clc1ccc2c(N3CCN(CC45CC6CC(CC(C6)C4)C5)CC3)ccnc2c1 | 0.75
FC(F)(F)c1ccc2c(NCCNCC34CC5CC(CC(C5)C3)C4)ccnc2c1 | 0.74
CC(CCNCCC12CC3CC(CC(C3)C1)C2)Nc1ccnc2ccccc12 (stereo not drawn) | 0.74
CC(CCNCC12CC3CC(CC(C3)C1)C2)Nc1ccnc2cc(C(F)(F)F)ccc12 (stereo not drawn) | 0.73
Clc1ccc2c(Nc3ccc(NCC45CC6CC(CC(C6)C4)C5)cc3)ccnc2c1 | 0.75
CC(CCNCCC12CC3CC(CC(C3)C1)C2)Nc1ccnc2cc(Cl)ccc12 (stereo not drawn) | 0.78
Clc1ccc2c(NCCCCNCC34CC5CC(CC(C5)C3)C4)ccnc2c1 | 0.78
Clc1ccc2c(Nc3cccc(NCC45CC6CC(CC(C6)C4)C5)c3)ccnc2c1 | 0.75
Clc1ccc2c(NCCCN3CCN(CCCNCCC45CC6CC(CC(C6)C4)C5)CC3)ccnc2c1 | 0.73
Clc1ccc2c(NCCCCCCCCNCC34CC5CC(CC(C5)C3)C4)ccnc2c1 | 0.78
Clc1ccc2c(Nc3cccc4c(NCCC56CC7CC(CC(C7)C5)C6)cccc34)ccnc2c1 | 0.7
CC(CCNCC12CC3CC(CC(C3)C1)C2)Nc1ccnc2ccccc12 (stereo not drawn) | 0.74
Clc1ccc2c(NCCCCN(CCC34CC5CC(CC(C5)C3)C4)CCC34CC5CC(CC(C5)C3)C4)ccnc2c1 | 0.65
Clc1ccc2c(NCCNCC34CC5CC(CC(C5)C3)C4)ccnc2c1 | 0.78
Clc1ccc2c(N3CCN(CCC45CC6CC(CC(C6)C4)C5)CC3)ccnc2c1 | 0.73

* * *

measurement-protocol: Reverse-phase thin-layer chromatographic lipophilicity (RF, RM0)
Format: physicochemical
details: Acetone/Water/Hydrochloric acid (conc.); slope of RM = RM0 + bC
observed-property: b

molecule | observed-property | experimental-value
Clc1ccc2c(N3CCN(CCC45CC6CC(CC(C6)C4)C5)CC3)ccnc2c1 | b | 2.562
CC(CCNCCC12CC3CC(CC(C3)C1)C2)Nc1ccnc2ccccc12 (centres unmarked) | b | 3.086
Clc1ccc2c(NCCCN3CCN(CCCNCC45CC6CC(CC(C6)C4)C5)CC3)ccnc2c1 | b | 2.763
CC(CCNCC12CC3CC(CC(C3)C1)C2)Nc1ccnc2cc(C(F)(F)F)ccc12 (centres unmarked) | b | 3.206
FC(F)(F)c1ccc2c(NCCNCC34CC5CC(CC(C5)C3)C4)ccnc2c1 | b | 3.169
Clc1ccc2c(NCCN(CCC34CC5CC(CC(C5)C3)C4)CCC34CC5CC(CC(C5)C3)C4)ccnc2c1 | b | 4.683
CC(CCNCCC12CC3CC(CC(C3)C1)C2)Nc1ccnc2cc(Cl)ccc12 (centres unmarked) | b | 3.396
Clc1ccc2c(Nc3cccc(NCC45CC6CC(CC(C6)C4)C5)c3)ccnc2c1 | b | 3.191
Clc1ccc2c(NCCNCCC34CC5CC(CC(C5)C3)C4)ccnc2c1 | b | 3.421
Clc1ccc2c(Nc3ccc(NCC45CC6CC(CC(C6)C4)C5)cc3)ccnc2c1 | b | 3.21
Clc1ccc2c(NCCCCCCNCC34CC5CC(CC(C5)C3)C4)ccnc2c1 | b | 3.254
CC(CCNCC12CC3CC(CC(C3)C1)C2)Nc1ccnc2ccccc12 (centres unmarked) | b | 2.801
Clc1ccc2c(NCCCN3CCN(CCCNCCC45CC6CC(CC(C6)C4)C5)CC3)ccnc2c1 | b | 2.934
Clc1ccc2c(NCCCCNCC34CC5CC(CC(C5)C3)C4)ccnc2c1 | b | 3.04
Clc1ccc2c(NCCCCCN(CCC34CC5CC(CC(C5)C3)C4)CCC34CC5CC(CC(C5)C3)C4)ccnc2c1 | b | 4.955
Clc1ccc2c(NCCNCC34CC5CC(CC(C5)C3)C4)ccnc2c1 | b | 2.883
Clc1ccc2c(N3CCN(CC45CC6CC(CC(C6)C4)C5)CC3)ccnc2c1 | b | 2.592

FYI, the data here is from paper PMC9229919.
